Origin of values: ChEMBL document CHEMBL5303573

# testDescription: The drug is tested on Ruminococcus torques strain: ATCC27756 for biotransformation. The drug concentrations were measured before and after a 12-h incubation by liquid-chromatography-coupled mass spectrometry (LC–MS)
# Type: ADME
# Design: dose 2 uM, timepoint 0 vs 12 hours
# conditions: 2 µM
reportedEndpoint: Bacterial Biotransformation

Worked cases, answers included:
[
  {
    "compound": "CCN(C(C)=O)c1cccc(-c2ccnc3c(C#N)cnn23)c1",
    "result": "Compound NOT metabolized"
  },
  {
    "compound": "O=C(NC(Cc1cc(=O)[nH]c2ccccc12)C(=O)O)c1ccc(Cl)cc1 (stereo not given) [REBAMIPIDE]",
    "result": "Compound NOT metabolized"
  },
  {
    "compound": "CC(C)(C)NC[C@H](O)COc1nsnc1N1CCOCC1.O=C(O)/C=C\\C(=O)O [TIMOLOL MALEATE]",
    "result": "Compound NOT metabolized"
  },
  {
    "compound": "CCN(CC)CCNC(=O)c1cc(S(C)(=O)=O)ccc1OC [TIAPRIDE]",
    "result": "Compound NOT metabolized"
  }
]

Next compound, please.
[in] Item COc1ccc2c3c1O[C@H]1C[C@@H](O)C=C[C@@]31CCN(C)C2 has what recorded Bacterial Biotransformation?
[out] Compound NOT metabolized

====

# testDescription: The drug is tested on the gut metagenome community of MV16 with ENA study accession number: PRJEB31790 and ENA sample accession number: SAMEA5537497 for biotransformation. The drug concentrations were measured over 9 timepoints collected between 0 and 24 hours of incubation by liquid-chromatography-coupled mass spectrometry (LC–MS)
# Assay type: ADME
# Design: dose 2 uM, timepoint 0, 1, 2, 4, 6, 8, 12, 18, 24 hours
# conditions: 2 µM
reportedEndpoint: Bacterial Biotransformation

[
  {
    "compound": "C#C[C@]1(OC(C)=O)CC[C@H]2[C@@H]3CCC4=CC(=O)CC[C@@H]4[C@H]3CC[C@@]21C [NORETHINDRONE ACETATE]",
    "result": "Compound metabolized"
  },
  {
    "compound": "CC(=O)OCC(CCn1cnc2cnc(N)nc21)COC(C)=O",
    "result": "Compound metabolized"
  },
  {
    "compound": "C[C@@H]1C[C@H]2[C@@H]3CCC4=CC(=O)C=C[C@]4(C)[C@@]3(F)[C@@H](O)C[C@]2(C)[C@@]1(O)C(=O)CO",
    "result": "Compound NOT metabolized"
  },
  {
    "compound": "COc1ccc([C@@H]2Sc3ccccc3N(CCN(C)C)C(=O)[C@@H]2OC(C)=O)cc1",
    "result": "Compound NOT metabolized"
  }
]

====

# testDescription: The drug is tested on Bacteroides vulgatus strain: ATCC8482 for biotransformation. The drug concentrations were measured before and after a 12-h incubation by liquid-chromatography-coupled mass spectrometry (LC–MS)
# conditions: phocaeicola vulgatus, 2 µM
reportedEndpoint: Bacterial Biotransformation

[
  {
    "compound": "O=C(O)COCCN1CCN(C(c2ccccc2)c2ccc(Cl)cc2)CC1 (configuration not stated)",
    "Bacterial Biotransformation": "Compound metabolized"
  },
  {
    "compound": "C[C@@H](CO)NC(=O)[C@@H]1C=C2c3cccc4[nH]cc(c34)C[C@H]2N(C)C1.O=C(O)/C=C\\C(=O)O [ERGONOVINE MALEATE]",
    "Bacterial Biotransformation": "Compound metabolized"
  },
  {
    "compound": "CC(=O)Nc1ccc(OC(C)=O)cc1 [DIACETAMATE]",
    "Bacterial Biotransformation": "Compound metabolized"
  },
  {
    "compound": "CC(C)C[C@H]1C(=O)N2CCC[C@H]2[C@]2(O)O[C@](NC(=O)[C@@H]3C=C4c5cccc6[nH]c(Br)c(c56)C[C@H]4N(C)C3)(C(C)C)C(=O)N12.CS(=O)(=O)O [BROMOCRIPTINE MESYLATE]",
    "Bacterial Biotransformation": "Compound metabolized"
  },
  {
    "compound": "COc1ccc2c3c1O[C@H]1C[C@@H](O)C=C[C@@]31CCN(C)C2",
    "Bacterial Biotransformation": "Compound metabolized"
  }
]

Next item in the queue.
[in] Can you share its Bacterial Biotransformation? I mean this compound: CN1C(=O)CCS(=O)(=O)C1c1ccc(Cl)cc1 (configuration not stated)
[out] Compound metabolized

====

# testDescription: The drug is tested on Bacteroides dorei strain: DSM17855 for biotransformation. The drug concentrations were measured before and after a 12-h incubation by liquid-chromatography-coupled mass spectrometry (LC–MS)
# conditions: phocaeicola dorei, 2 µM
reportedEndpoint: Bacterial Biotransformation

[
  {
    "compound": "Cc1nc(-c2ccc(OCC(C)C)c(C#N)c2)sc1C(=O)O",
    "reportedEndpoint": "Bacterial Biotransformation",
    "result": "Compound metabolized"
  },
  {
    "compound": "CC(=O)OCC(=O)[C@@]1(O)[C@@H](C)C[C@H]2[C@@H]3CCC4=CC(=O)C=C[C@]4(C)[C@@]3(F)[C@@H](O)C[C@@]21C [BETAMETHASONE ACETATE]",
    "reportedEndpoint": "Bacterial Biotransformation",
    "result": "Compound metabolized"
  },
  {
    "compound": "CC(C(=O)O)c1ccc2c(c1)Cc1cccnc1O2 (configuration not stated)",
    "reportedEndpoint": "Bacterial Biotransformation",
    "result": "Compound metabolized"
  },
  {
    "compound": "COc1ccc(C(CN(C)C)C2(O)CCCCC2)cc1 (configuration not stated)",
    "reportedEndpoint": "Bacterial Biotransformation",
    "result": "Compound NOT metabolized"
  },
  {
    "compound": "CCN(CC)CCNC(=O)c1cc(S(C)(=O)=O)ccc1OC [TIAPRIDE]",
    "reportedEndpoint": "Bacterial Biotransformation",
    "result": "Compound NOT metabolized"
  },
  {
    "compound": "CN1[C@@H]2CC[C@H]1C[C@@H](OC(=O)C(CO)c1ccccc1)C2 (some centres not stated)",
    "reportedEndpoint": "Bacterial Biotransformation",
    "result": "Compound NOT metabolized"
  },
  {
    "compound": "CCOC(=O)[C@H](CCc1ccccc1)N[C@@H](C)C(=O)N1Cc2ccccc2C[C@H]1C(=O)O",
    "reportedEndpoint": "Bacterial Biotransformation",
    "result": "Compound metabolized"
  },
  {
    "compound": "CC(=O)SCC(Cc1ccccc1)C(=O)NCC(=O)OCc1ccccc1 (configuration not stated)",
    "reportedEndpoint": "Bacterial Biotransformation",
    "result": "Compound metabolized"
  }
]

[in] Sample OCCN1CCN(CCCN2c3ccccc3Sc3ccc(C(F)(F)F)cc32)CC1 — what was its Bacterial Biotransformation?
[out] Compound metabolized

====

# testDescription: The drug is tested on Alistipes indistinctus strain: DSM22520 for biotransformation. The drug concentrations were measured before and after a 12-h incubation by liquid-chromatography-coupled mass spectrometry (LC–MS)
# conditions: 2 µM
Non-standard residues stand in square brackets, D forms with d. Residues, ends and D or L forms follow the SMILES beside them. pGlu = O=C1CC[C@@H](C(=O)O)N1; Thz = O=C(O)[C@@H]1CSCN1
reportedEndpoint: Bacterial Biotransformation

The examples below pair each entry with its known result.
[
  {
    "compound": "Cc1nc2n(c(=O)c1CCN1CCC(c3noc4cc(F)ccc34)CC1)CCCC2 [RISPERIDONE]",
    "Bacterial Biotransformation": "Compound metabolized"
  },
  {
    "compound": "O=C1CC[C@@H](C(=O)N2CSC[C@H]2C(=O)O)N1 [PIDOTIMOD] ([pGlu]-[Thz]-OH)",
    "Bacterial Biotransformation": "Compound NOT metabolized"
  },
  {
    "compound": "CN(C)C(=O)C(CCN1CCC(O)(c2ccc(Cl)cc2)CC1)(c1ccccc1)c1ccccc1 [LOPERAMIDE]",
    "Bacterial Biotransformation": "Compound metabolized"
  },
  {
    "compound": "CC1Cc2ccccc2N1NC(=O)c1ccc(Cl)c(S(N)(=O)=O)c1 (stereo not drawn) [INDAPAMIDE]",
    "Bacterial Biotransformation": "Compound NOT metabolized"
  },
  {
    "compound": "OCCN1CCN(CCCN2c3ccccc3Sc3ccc(C(F)(F)F)cc32)CC1 [FLUPHENAZINE]",
    "Bacterial Biotransformation": "Compound NOT metabolized"
  },
  {
    "compound": "CC(C)(C#N)c1cc(Cn2cncn2)cc(C(C)(C)C#N)c1 [ANASTROZOLE]",
    "Bacterial Biotransformation": "Compound NOT metabolized"
  },
  {
    "compound": "CCOc1ccc2nc(S(N)(=O)=O)sc2c1 [ETHOXZOLAMIDE]",
    "Bacterial Biotransformation": "Compound metabolized"
  },
  {
    "compound": "COc1ccc(C(CN(C)C)C2(O)CCCCC2)cc1 (stereo not drawn) [VENLAFAXINE]",
    "Bacterial Biotransformation": "Compound NOT metabolized"
  }
]

[in] Given the entry CC(=O)CCCCn1c(=O)c2c(ncn2C)n(C)c1=O [PENTOXIFYLLINE] , report its measured Bacterial Biotransformation.
[out] Compound NOT metabolized

[in] Another: CC(C(=O)O)c1ccc2c(c1)Cc1cccnc1O2 (stereo not drawn) [PRANOPROFEN]
[out] Compound metabolized

[in] Now try CN1CCC(=C2c3ccccc3CCc3cccnc32)CC1.O=C(O)/C=C\C(=O)O.O=C(O)/C=C\C(=O)O [AZATADINE MALEATE] .
[out] Compound NOT metabolized

[in] Then CC[C@H](C)C(=O)O[C@H]1CCC=C2C=C[C@H](C)[C@H](CC[C@@H]3C[C@@H](O)CC(=O)O3)[C@H]21 [MEVASTATIN] ?
[out] Compound metabolized

[in] And the next one, CCc1nc(N)nc(N)c1-c1ccc(Cl)cc1 [PYRIMETHAMINE] ?
[out] Compound NOT metabolized

[in] Now the same for COc1ccc(CCN(C)CCCC(C#N)(c2ccc(OC)c(OC)c2)C(C)C)cc1OC (stereo not drawn)
[out] Compound NOT metabolized

[in] Thanks! And O=c1[nH]c2ccccc2n1CCCN1CCC(n2c(=O)[nH]c3cc(Cl)ccc32)CC1 [DOMPERIDONE] ?
[out] Compound NOT metabolized

[in] What do you have for O=C(Nc1ccccc1)OCC(CN1CCCCC1)OC(=O)Nc1ccccc1 (stereo not drawn) [DIPERODON] ?
[out] Compound NOT metabolized

[in] What would you report for N#Cc1ccc2[nH]cc(CCCCN3CCN(c4ccc5oc(C(N)=O)cc5c4)CC3)c2c1 [VILAZODONE] ?
[out] Compound metabolized

[in] Ok, now CC(C)NCC(O)COc1ccc(CCOCC2CC2)cc1 (stereo not drawn) [BETAXOLOL]
[out] Compound NOT metabolized
